molecular target: HCV polymerase (NS5B) type 1b (Hepatitis C virus genotype 1b); construct: a region encoding NS5B (J Virol 1991 March, 65(3), 1105-13, 544 amino acids after deletion of 47 amino acids on the C-terminal); 6xHis (C); made in house; host or cells: Escherichia coli; assay: Assay of enzyme (HCV polymerase) inhibitory activity, type 1b enzyme; assay type: biochemical, HCV BK strain (type 1b); settings: HCV polymerase inhibitory activity (IC50), 1b, type 1b enzyme 0.5 μg/ml, 25° C., 60 min
Sequence (P26663 2420-2963): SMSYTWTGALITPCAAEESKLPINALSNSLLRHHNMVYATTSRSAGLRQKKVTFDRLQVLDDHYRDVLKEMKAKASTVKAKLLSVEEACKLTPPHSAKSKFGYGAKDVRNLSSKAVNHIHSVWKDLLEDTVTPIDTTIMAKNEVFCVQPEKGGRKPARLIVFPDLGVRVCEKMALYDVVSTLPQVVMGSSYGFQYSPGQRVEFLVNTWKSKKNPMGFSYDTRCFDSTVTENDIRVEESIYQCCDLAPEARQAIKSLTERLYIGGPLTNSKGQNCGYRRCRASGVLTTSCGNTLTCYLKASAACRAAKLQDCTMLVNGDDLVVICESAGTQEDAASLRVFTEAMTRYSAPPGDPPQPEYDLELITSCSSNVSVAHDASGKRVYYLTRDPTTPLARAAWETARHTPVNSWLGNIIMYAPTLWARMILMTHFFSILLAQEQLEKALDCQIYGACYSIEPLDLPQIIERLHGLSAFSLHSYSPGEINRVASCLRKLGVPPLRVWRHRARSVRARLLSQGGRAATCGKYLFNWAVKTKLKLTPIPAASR
pIC50: −log10 of the molar value.

| MOLECULE | TESTED_ON | pIC50 |
| --- | --- | --- |
| CCCc1ccc(CNC(=O)[C@H]2CN(C(C)=O)CCN2S(=O)(=O)c2ccc(C(C)C)cc2)cc1 | HCV polymerase (NS5B) type 1b (Hepatitis C virus genotype 1b) | > 7.00 |
| CC(C)c1ccc(S(=O)(=O)N2CCN(C(=O)C(C)(C)O)CC2C(=O)NCc2ccc(C(F)(F)F)cc2)cc1 (stereo not drawn) | HCV polymerase (NS5B) type 1b (Hepatitis C virus genotype 1b) | < 6.00 |
| CC(C)(C)c1ccc(CNC(=O)[C@H]2CN(c3ccc(C(=O)O)nc3)CCN2S(=O)(=O)c2ccc(OC(F)(F)F)cc2)cc1 | HCV polymerase (NS5B) type 1b (Hepatitis C virus genotype 1b) | > 7.00 |
| CC(=O)N1CCN(S(=O)(=O)c2ccc(C(C)C)cc2)[C@@H](C(=O)NCc2ccc(CCO)cc2)C1 | HCV polymerase (NS5B) type 1b (Hepatitis C virus genotype 1b) | < 6.00 |
| COc1ccc(CNC(=O)[C@H]2CN(C(C)=O)CCN2S(=O)(=O)c2ccc(OC(F)(F)F)cc2)cc1 | HCV polymerase (NS5B) type 1b (Hepatitis C virus genotype 1b) | 6.00 to 7.00 |
| CN(C)c1ccc(CNC(=O)[C@H]2CN(c3cnc4cncnc4n3)CCN2S(=O)(=O)c2ccc(OC(F)(F)F)cc2)cn1 | HCV polymerase (NS5B) type 1b (Hepatitis C virus genotype 1b) | > 7.00 |
| CC(=O)N1CCN(S(=O)(=O)c2ccc(C(C)C)cc2)C(C(=O)NCc2ccccc2N(C)C)C1 (stereo not drawn) | HCV polymerase (NS5B) type 1b (Hepatitis C virus genotype 1b) | < 6.00 |
| CCC(F)(F)c1ccc(CNC(=O)[C@H]2CN(c3nccc(N)n3)CCN2S(=O)(=O)c2ccc(OC(F)(F)F)cc2)cc1 | HCV polymerase (NS5B) type 1b (Hepatitis C virus genotype 1b) | 6.00 to 7.00 |
| CC(=O)N1CCN(S(=O)(=O)c2ccc(C(C)C)cc2)[C@@H](C(=O)NCc2ccc(-c3csnn3)cc2)C1 | HCV polymerase (NS5B) type 1b (Hepatitis C virus genotype 1b) | 6.00 to 7.00 |
| CCC(F)(F)c1ccc(CNC(=O)[C@H]2CN(C(=O)Nc3ccnc(C(=O)O)c3)CCN2S(=O)(=O)c2ccc(OC(F)(F)F)cc2)cc1 | HCV polymerase (NS5B) type 1b (Hepatitis C virus genotype 1b) | 6.00 to 7.00 |
| CC(=O)N1CCN(S(=O)(=O)c2ccc(C(C)C)s2)C(C(=O)NCc2ccc(C(F)(F)F)cc2)C1 (stereo not drawn) | HCV polymerase (NS5B) type 1b (Hepatitis C virus genotype 1b) | < 6.00 |
| CC(C)c1ccc(CNC(=O)[C@H]2CN(C(=O)Nc3ccc(C(=O)O)cc3)CCN2S(=O)(=O)c2ccc(C(F)(F)F)cc2)cc1 | HCV polymerase (NS5B) type 1b (Hepatitis C virus genotype 1b) | > 7.00 |
| CCCc1ccc(CNC(=O)[C@H]2CN(c3cc(C)c(O)nn3)CCN2S(=O)(=O)c2ccc(OC(F)(F)F)cc2)cc1 | HCV polymerase (NS5B) type 1b (Hepatitis C virus genotype 1b) | > 7.00 |
| COc1ccc(S(=O)(=O)N2CCN(C(C)=O)C[C@@H]2C(=O)NCc2ccc(C(C)C)cc2)cc1C#N | HCV polymerase (NS5B) type 1b (Hepatitis C virus genotype 1b) | 6.00 to 7.00 |
| CC(=O)N1CCN(S(=O)(=O)c2ccc(CC3CC3)cc2)[C@@H](C(=O)NCc2ccc(C(C)C)cc2)C1 | HCV polymerase (NS5B) type 1b (Hepatitis C virus genotype 1b) | > 7.00 |
| CCC(F)(F)c1ccc(CNC(=O)[C@H]2CN(C(=O)Nc3ccnc(C(N)=O)c3)CCN2S(=O)(=O)c2ccc(OC(F)(F)F)cc2)cc1 | HCV polymerase (NS5B) type 1b (Hepatitis C virus genotype 1b) | > 7.00 |
| COC(=O)CCc1ccc(S(=O)(=O)N2CCN(C(C)=O)CC2C(=O)NCc2ccc(C(F)(F)F)cc2)cc1 (stereo not drawn) | HCV polymerase (NS5B) type 1b (Hepatitis C virus genotype 1b) | < 6.00 |
| CCCc1ccc(CNC(=O)[C@H]2CN(C(=O)Cn3nnc(CC(=O)OCC)n3)CCN2S(=O)(=O)c2ccc(OC(F)(F)F)cc2)cc1 | HCV polymerase (NS5B) type 1b (Hepatitis C virus genotype 1b) | > 7.00 |
| CN(C)c1ccc(CNC(=O)C2CN(C(=O)CNC(=O)OC(C)(C)C)CCN2S(=O)(=O)c2ccc(I)cc2)cc1 (stereo not drawn) | HCV polymerase (NS5B) type 1b (Hepatitis C virus genotype 1b) | < 6.00 |
| CC(=O)N1CCN(S(=O)(=O)c2ccc(C(C)C)cc2)[C@@H](C(=O)NCc2ccc(C3CC3)cc2C)C1 | HCV polymerase (NS5B) type 1b (Hepatitis C virus genotype 1b) | > 7.00 |
| CC(C)(C)c1ccc(CNC(=O)[C@H]2CN(c3cnc(CN4CCCC4)cn3)CCN2S(=O)(=O)c2ccc(OC(F)(F)F)cc2)cc1 | HCV polymerase (NS5B) type 1b (Hepatitis C virus genotype 1b) | > 7.00 |
| Cc1cc(C(C)C)ccc1CNC(=O)[C@H]1CN(c2nc(C)c(C(=O)O)s2)CCN1S(=O)(=O)c1ccc(C(F)(F)F)cc1 | HCV polymerase (NS5B) type 1b (Hepatitis C virus genotype 1b) | > 7.00 |
| CCCc1ccc(S(=O)(=O)N2CCN(c3nc(C(=O)O)cs3)C[C@@H]2C(=O)NCc2ccc(C(C)C)cc2)cc1 | HCV polymerase (NS5B) type 1b (Hepatitis C virus genotype 1b) | 6.00 to 7.00 |
| COC(=O)c1nc(Cl)c(N2CCN(S(=O)(=O)c3ccc(C(F)(F)F)cc3)[C@@H](C(=O)NCc3ccc(C(C)C)cc3)C2)nc1N | HCV polymerase (NS5B) type 1b (Hepatitis C virus genotype 1b) | < 6.00 |
| CC(=O)N1CCN(S(=O)(=O)c2ccc(C(C)C)cc2)C(C(=O)NCCCc2ccccc2)C1 (stereo not drawn) | HCV polymerase (NS5B) type 1b (Hepatitis C virus genotype 1b) | < 6.00 |
| CC(C)c1ccc(CNC(=O)[C@H]2CN(c3nccn3C)CCN2S(=O)(=O)c2ccc(C(F)(F)F)cc2)cc1 | HCV polymerase (NS5B) type 1b (Hepatitis C virus genotype 1b) | 6.00 to 7.00 |
| CC(=O)N1CCN(S(=O)(=O)c2ccc([N+](=O)[O-])cc2)C(C(=O)NCc2ccc(C(F)(F)F)cc2)C1 (stereo not drawn) | HCV polymerase (NS5B) type 1b (Hepatitis C virus genotype 1b) | < 6.00 |

----------
biological target: HCV polymerase (NS5B) type 1b (Hepatitis C virus genotype 1b); construct: a region encoding NS5B (J Virol 1991 March, 65(3), 1105-13, 544 amino acids after deletion of 47 amino acids on the C-terminal); 6xHis (C); made in house; host or cells: Escherichia coli; assay: Assay of enzyme (HCV polymerase) inhibitory activity, type 1b enzyme; type: biochemical, HCV BK strain (type 1b); conditions: HCV polymerase inhibitory activity (IC50), 1b, type 1b enzyme 0.5 μg/ml, 25° C., 60 min
Structures can show the parent of a compound that is named as a salt.
Listed here: items and their measured IC50.
ASSAY_METRIC: IC50

| COMPOUND | ASSAY_METRIC | RESULT |
| --- | --- | --- |
| CC(=O)N1CCN(S(=O)(=O)c2ccc(C(C)C)cc2)C(C(=O)NCc2ccc(Cl)cc2)C1 (stereo not drawn) | IC50 | > 1 µM |
| CCN(C)c1ccc(CNC(=O)[C@H]2CN(c3nc(C)c(C(=O)O)s3)CCN2S(=O)(=O)c2ccc(OC(F)(F)F)cc2)cc1 | IC50 | < 0.1 µM |
| COc1cccc(CNC(=O)C2CN(C(C)=O)CCN2S(=O)(=O)c2ccc(C(C)C)cc2)c1 (stereo not drawn) | IC50 | > 1 µM |
| CC(C)c1ccc(CNC(=O)[C@H]2CN(CCc3ccncc3)CCN2S(=O)(=O)c2ccc(C(F)(F)F)cc2)cc1 | IC50 | 0.1 to 1 µM |
| CC(=O)N1CCN(S(=O)(=O)c2ccc(C(C)C)cc2)C(C(=O)NCc2ccccc2Cl)C1 (stereo not drawn) | IC50 | > 1 µM |
| CC(=O)N1CCN(S(=O)(=O)c2ccc3c(c2)CCCC3)[C@@H](C(=O)NCc2ccc(C(C)C)cc2)C1 | IC50 | < 0.1 µM |
| CC(=O)N1CCN(S(=O)(=O)c2ccc3c(c2)N(C)CCC3)[C@@H](C(=O)NCc2ccc(C(C)C)cc2)C1 | IC50 | < 0.1 µM |
| CN(C)c1ccc(CNC(=O)C2CN(C(=O)CN)CCN2S(=O)(=O)c2ccc(I)cc2)cc1 (stereo not drawn) [Example 88, hydrochloride] | IC50 | > 1 µM |
| Cc1csc(N2CCN(S(=O)(=O)c3ccc(C(C)C)cc3)C(C(=O)NCc3ccc(C(F)(F)F)cc3)C2)n1 (stereo not drawn) | IC50 | > 1 µM |
